Provide the reported TGI of each item.
test system: HCC-2998 colon; assay: NCI tumour cell line growth inhibition, 48 h

MOLECULE: NC(Cc1c2ccccc2cc2ccccc12)C(=O)O (centres undefined)
TARGET ENTITY: HCC-2998 colon
VALUE: > 100 µM
--
MOLECULE: CC1=C(C(N)=O)C(c2ccncc2)C(C#N)C(=O)N1 (centres undefined)
TARGET ENTITY: HCC-2998 colon
VALUE: > 100 µM
--
MOLECULE: CC(=O)Nc1ccc2c3c(cc(O)c2c1)N(C(=O)CCCCCCC(=O)Nc1ccc2c4c(cc(O)c2c1)N(C(=O)OC(C)(C)C)CC4CCl)CC3CCl (centres undefined)
TARGET ENTITY: HCC-2998 colon
VALUE: 0.238 µM
--
MOLECULE: COc1ccc(Cc2nc3cc(C(F)(F)F)ccc3n2C[C@@H]2CCCN3CCCCC23)cc1 (some centres undefined)
TARGET ENTITY: HCC-2998 colon
VALUE: 5.94 µM

Hey, can you go through the list below and give me TGI for every item?
1. C/C(=N\NC(N)=O)C(CN1CCOCC1)C(c1ccccc1)c1c(O)c2ccccc2oc1=O (centres undefined)
2. COc1ccccc1Nc1nc(N)nc(N)c1N
3. CN(C)CCCCN1c2ccccc2Sc2ccc(N=[N+]=[N-])cc21

["> 100 µM", "> 100 µM", "3.18 µM"]

// for each molecule in input: emit TGI
1. Cc1c(CNc2ccc(Cl)c(Cl)c2Cl)cnc2nc(N)nc(N)c12
2. CCOC(=O)c1c2ccccc2n2c(=O)n(-c3ccccc3)nnc12

["> 100 µM", "> 100 µM"]

Values from PubChem BioAssay (NCI)
